# Tested on: 323965-272-R-J2-PDC complex spheroid growth, % test/control
# protocol.notes: Anticancer human tumor 323965-272-R-J2-PDC patient-derived pancreatic carcinoma cell line growth inhibition [Asc]
# condition.set: second compound 0.949 µM; first compound 0.316 µM; active compounds read low
metric.name: viability, T/C (%)
Numeric answer only, unit % assumed.

1) CNC(C)C(=O)NC1CN(S(=O)(=O)c2cccc(S(=O)(=O)N3CCC4CCC(C(=O)NC(c5ccccc5)c5ccccc5)N4C(=O)C(NC(=O)C(C)NC)C3)c2)CCC2CCC(C(=O)NC(c3ccccc3)c3ccccc3)N2C1=O (stereo unspecified) + CCN1C(C(=O)NC23CCC(C(=O)O)(CC2)CC3)C(c2cccc(Cl)c2F)C2(C(=O)Nc3cc(Cl)ccc32)C12CCCCC2: 95.1

Considering CCN1CCN(Cc2ccc(Nc3ncc(F)c(-c4cc(F)c5nc(C)n(C(C)C)c5c4)n3)nc2)CC1 + CCN1C(C(=O)NC23CCC(C(=O)O)(CC2)CC3)C(c2cccc(Cl)c2F)C2(C(=O)Nc3cc(Cl)ccc32)C12CCCCC2 , its viability, T/C with 323965-272-R-J2-PDC complex spheroid growth, % test/control was recorded as 73.1

Considering COc1c(OCCCN2CCOCC2)ccc2c3n(c(=NC(=O)c4cnc(N)nc4)nc12)CCN3 + CCN1C(C(=O)NC23CCC(C(=O)O)(CC2)CC3)C(c2cccc(Cl)c2F)C2(C(=O)Nc3cc(Cl)ccc32)C12CCCCC2 , its viability, T/C with 323965-272-R-J2-PDC complex spheroid growth, % test/control was recorded as 42.3

Considering C=CC(=O)N1CCN(c2nc(=O)n(-c3c(C)ccnc3C(C)C)c3nc(-c4c(O)cccc4F)c(F)cc23)C(C)C1 (stereo unspecified) + CCN1C(C(=O)NC23CCC(C(=O)O)(CC2)CC3)C(c2cccc(Cl)c2F)C2(C(=O)Nc3cc(Cl)ccc32)C12CCCCC2 , its viability, T/C with 323965-272-R-J2-PDC complex spheroid growth, % test/control was recorded as 62.8

Considering O=C(c1ccc(F)c(F)c1Nc1ccc(I)cc1F)N1CC(O)([C@@H]2CCCCN2)C1 + CCN1C(C(=O)NC23CCC(C(=O)O)(CC2)CC3)C(c2cccc(Cl)c2F)C2(C(=O)Nc3cc(Cl)ccc32)C12CCCCC2 , its viability, T/C with 323965-272-R-J2-PDC complex spheroid growth, % test/control was recorded as 33.4

Considering C=C(F)C(=O)N1CCN(c2nc(OCC3CCCN3C)nc3c2CCN(c2cccc4cccc(Cl)c24)C3)CC1CC#N (stereo unspecified) + CCN1C(C(=O)NC23CCC(C(=O)O)(CC2)CC3)C(c2cccc(Cl)c2F)C2(C(=O)Nc3cc(Cl)ccc32)C12CCCCC2 , its viability, T/C with 323965-272-R-J2-PDC complex spheroid growth, % test/control was recorded as 63.8

====

# Tested on: 323965-272-R-J2-PDC complex spheroid growth, % test/control
# protocol.notes: Anticancer human tumor 323965-272-R-J2-PDC cell line growth inhibition [Asc];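 also: compound exposure lasted 7 days starting three days after spheroid seeding; 100% = DMSO vehicle control wells with viability set relative to vehicle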
# condition.set: second compound 0.1 µM; first compound 0.03 µM; active compounds read low
metric.name: viability, T/C (%)
Numeric answer only, unit % assumed.

1. NC(=O)C(=Cn1cnc(-c2cc(C(F)(F)F)cc(C(F)(F)F)c2)n1)c1cncnc1 + CNC(C)C(=O)NC1CN(S(=O)(=O)c2cccc(S(=O)(=O)N3CCC4CCC(C(=O)NC(c5ccccc5)c5ccccc5)N4C(=O)C(NC(=O)C(C)NC)C3)c2)CCC2CCC(C(=O)NC(c3ccccc3)c3ccccc3)N2C1=O: 87

Let's switch to this compound now.
Measured viability, T/C, Cc1nc(N2CCC3(CC2)COC(C)C3N)c(CO)nc1Sc1ccnc(N)c1Cl (configuration not stated) + Cc1c(S(C)(=O)=O)c(-c2cc(F)cc(N3CCN(c4ccc(NS(=O)(=O)c5ccc(NC(CCN6CCC(C(=O)OCCCP(=O)(O)O)CC6)CSc6ccccc6)c(S(=O)(=O)C(F)(F)F)c5)cc4)CC3)c2)c(-c2ccc(Cl)cc2)n1C(C)C : 96.2
